Assay: Stat Signaling Pathway (AID 446);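 further: ME-180 cervical cancer cells given 40 pM IL-6 alongside compound; SIE-controlled beta-lactamase reporter measured as 460/530 nm FRET emission ratio; on the % scale 0 is the no-effect control and ±100 the full control effect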
Details: ME-180 (cervical carcinoma) SIE beta-lactamase reporter, IL-6 stimulated, 5 h; at 17.2 µM (top of the series) unless noted
Protocol: NCGC Assay Overview: The IL-6/STAT signaling pathway was assayed in ME-180 cervical carcinoma cells by a beta-lactamase reporter gene controlled by a STAT Inducible Element (SIE). This reporter is induced by IL-6 at 40 pM AC50 and inhibited by the pan JAK inhibitor, 2-(1,1-Dimethylethyl)-9-fluoro-3,6-dihydro-7H-benz[h]-imidaz[4,5-f]isoquinolin-7-one, at approximately 10 nM AC50. Plated cells were incubated overnight and on the following day, stimulated with 40 pM IL-6 for 5 hrs. […]
Records with an inconclusive call do not appear.
observation_type: activity, negative = inhibition (%)
Report only the number, with the unit % understood.

>>> print(df.to_string())
                                   compound  measurement_units  value_measured
0    CCN(CC)CCOC(=O)c1c(C)n(C)c2ccc(OC)cc12                  %            11.9
1  CC(=O)Nc1cccc(NC(=O)CSc2nc(C)c(C)c(C)c2C#N)c1                  %            -4.2
2  CCOC(=O)c1[nH]c2cc3c(cc2c1NC(=O)CN1CCC2(CC1)OCCO2)OCO3                  %           -9.66
3  OC1(C2(O)CC(c3ccccc3)ON2)CCCCC1 (stereo not drawn)                  %           -6.74
4         COc1ccc(-n2ccc(=O)c3c2CCCC3=O)cc1                  %            3.34

Task: Consider the compound "CCN(CC)C(=O)COn1c(SCC(=O)N(CC)CC)nc2ccccc2c1=O" . State its measured activity, negative = inhibition.
Result: 9.4

Task: Consider the compound "O=C(c1ccc(=O)oc1)N1CCN(C(c2ccccc2)c2ccccc2)CC1" . State its measured activity, negative = inhibition.
Result: -15.5

Task: Consider the compound "Cc1cc(/C=c2/sc3nc4ccccc4n3c2=O)c(C)n1-c1ccccn1" . State its measured activity, negative = inhibition.
Result: -5.6

Task: Consider the compound "Cn1c(=O)c2c(nc(NCc3ccc4c(c3)OCO4)n2Cc2ccccc2)n(C)c1=O" . State its measured activity, negative = inhibition.
Result: -25

Task: Consider the compound "COC(=O)CN(c1nc(C)c(Br)c(OC)n1)S(=O)(=O)c1ccc(C)cc1" . State its measured activity, negative = inhibition.
Result: 7.73

* * *

system: JCK; test: qHTS profiling for inhibitors of Plasmodium falciparum proliferation (AID 504749); further: nearly all actives have a fitted effect of over 60% in size; conditions: P. falciparum in erythrocytes, SYBR Green DNA, 72 h; series mostly up to 28.7 µM
Records with an inconclusive call do not appear. Activity calls are given as the source filed them. Calls follow the shape of the dose curve; as a rule, active = well fitted inhibition curve with a large enough effect; inconclusive = small, poorly fitted or top-dose-only effect; inactive = flat fitted curve, though single readings scatter.
Parameter call: string, one of 1 for active, 0 for inactive

Previously resolved entries follow.
compound	test_system	category_label
NC(C(=O)O)C(O)c1ccc(O)c(O)c1 (stereo not drawn)	JCK	0
CCC(=O)OC1C(N(C)C)CC(C)O[C@H]1O[C@H]1[C@H](C)[C@@H](O[C@H]2CC(OC)[C@@H](O)C(C)O2)[C@H](C)C(=O)O[C@@H](CC)[C@](C)(O)[C@@H](O)[C@H](C)C(=O)[C@@H](C)C[C@]1(C)O (stereo partly drawn)	JCK	0
CC(=O)CC(c1ccccc1)C1C(=O)Oc2ccccc2C1=O (stereo not drawn)	JCK	0
CCCCC(=O)OC1CCC2C3CCc4cc(O)ccc4C3CC[C@]12C (stereo partly drawn)	JCK	0
O=C1NC(=O)C2C3C=CC(C3)C12 (stereo not drawn)	JCK	0
C[C@@H]1CC2C3CCC4=CC(=O)C=C[C@]4(C)[C@@]3(F)[C@@H](O)C[C@]2(C)[C@@]1(O)C(=O)COC(=O)c1cccc(S(=O)(=O)O)c1 (stereo partly drawn)	JCK	0
CCCCCCCCCCCCCCCC(=O)OCC(COP(=O)(O)OCC[N+](C)(C)C)OC(=O)CCCCCCCCCCCCCCC (stereo not drawn)	JCK	0

Please look at the following compound next.
Task: Look up the recorded call for CCC(C(=O)O)C1OC(C(C)C(O)C(C)C(=O)C(CC)C2OC3(C=CC(O)C4(CCC(C)(C5CCC(O)(CC)C(C)O5)O4)O3)C(C)CC2C)C(C)CC1C (stereo not drawn) in this test.
Result: 1
